Cited source: patent US10080743B2

Target: human FXR (NR1H4) (Homo sapiens, UniProt Q96RI1)
Construct: host or cells: CHO (Chinese hamster ovary) cells
Sequence (Q96RI1 1-486): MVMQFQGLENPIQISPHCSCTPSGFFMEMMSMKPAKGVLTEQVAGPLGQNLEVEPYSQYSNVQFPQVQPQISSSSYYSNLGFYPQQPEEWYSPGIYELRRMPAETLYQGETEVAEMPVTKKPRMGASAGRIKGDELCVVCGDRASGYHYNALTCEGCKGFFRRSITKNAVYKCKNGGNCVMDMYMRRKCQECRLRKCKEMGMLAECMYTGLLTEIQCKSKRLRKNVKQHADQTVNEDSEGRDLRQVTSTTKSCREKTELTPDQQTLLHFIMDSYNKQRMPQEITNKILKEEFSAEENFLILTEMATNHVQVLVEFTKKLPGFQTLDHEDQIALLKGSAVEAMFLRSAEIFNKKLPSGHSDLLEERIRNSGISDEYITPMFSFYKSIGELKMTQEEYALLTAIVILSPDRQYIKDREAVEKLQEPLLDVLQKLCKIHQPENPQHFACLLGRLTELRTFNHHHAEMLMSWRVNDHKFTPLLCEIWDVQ
Assay: Human FXR (NR1H4) Assay (Gal4 promoter driven luciferase reporter transactivation, Indigo Bioscience kit IB00601)
Assay type: cell-based
Details: efficacy normalized to CDCA set as 100%
reported_property: Efficacy (%)
# number only, unit % dropped from output

These solved cases illustrate the format of a correct answer.
CC(C)c1onc(-c2c(Cl)cccc2Cl)c1COc1ccc(-c2ccc3c(NC(=O)NS(=O)(=O)C4CC4)cccc3c2)cc1 :: 1.2
CC(C)c1onc(-c2c(Cl)cccc2Cl)c1COc1ccc(-c2ccc3c(C(=O)O)cccc3c2)cc1 [Compound (1), reference compound] :: 220

I have this molecule here, CC(C)c1onc(-c2c(Cl)cccc2Cl)c1COc1ccc(-c2ccc3c(C(=O)NS(=O)(=O)N(C)C)cccc3c2)cc1 , and I need its recorded Efficacy (%).
1.3

I have this molecule here, CC(C)c1onc(-c2c(Cl)cccc2Cl)c1COc1ccc(-c2ccc3c(NC(=O)NS(=O)(=O)c4ccccc4)cccc3c2)cc1 , and I need its recorded Efficacy (%).
117
